Below, each entry is listed with its recorded GI50.
# Test system: SK-OV-3
# Assay notes: NCI tumour cell line growth inhibition, 48 h
Activity calls are given as the source filed them. Cut-off read from the data, not from the text of the source: active = GI50 up to about 1.1 µM and inactive = higher.

{"columns": ["Compound", "GI50"],
 "data": [
  ["O=C(NCCNCCNC(=O)C(F)(F)F)C(F)(F)F", "> 100 µM (inactive)"],
  ["CC(=O)O[C@@]12CO[C@@H]1CC(O)[C@@]1(C)C(=O)[C@H](O)C3=C(C)C(O)C[C@@](O)(C(OC(=O)c4ccccc4)C12)C3(C)C (stereo partly specified)", "0.767 µM (active)"],
  ["Clc1cc(-c2ccccc2)nc2ccccc12", "> 100 µM (inactive)"],
  ["Cc1c(C)c(C)c(-n2c(=O)n(C)c(=O)n2C(C)(C)C)c(C)c1C", "> 100 µM (inactive)"],
  ["O=c1[nH]c(C2CCCCC2)nc2c(Cl)cccc12", "> 100 µM (inactive)"],
  ["NC(CCC(=O)NC(CSC(=O)N(O)c1ccc(Cl)cc1)C(=O)NCC(=O)O)C(=O)O (stereo unspecified)", "> 0.5 µM (active)"]
]}

// provenance: ChEMBL document CHEMBL1201862
